Entry source: patent US20230123334A1

Measured Absolute DNA transfection efficiency in HEK293 cells, listed per entry.
- Test system: HEK293 cells
- TEST_NAME: Preliminary screening as DNA vectors, GFP transfection of HEK293 cells
- Format: cell-based
- MEASUREMENT_SETUP: HEK293 cells; lipid/DOPE liposome with 75 ng plasmid DNA (psin-EGFP-IRES-Puro); number of cells expressing GFP divided by total number of nuclei (Hoechst)
Your answer should be a plain number; it is taken to be in %.

Some molecules with known Absolute DNA transfection efficiency in HEK293 cells results, for comparison:
CCCCCCCCCCCSc1nc(NCCN2CCN(C)CC2)nc(SCCCCCCCCCCC)n1	3.4
CCCCCCCCCCCCCCCSc1nc(NCCN2CCOCC2)nc(SCCCCCCCCCCC)n1	0.3
CCCCCCCCCCCCCCCCCCNc1nc(NCCCCCCCCCCCCC)nc(NCC2CCN(C)CC2)n1	0.5
CCCCCCCCCCCCCCCNc1nc(NCCCCCCCCCCCCCCC)nc(NCCN2CCCCC2)n1	1.3
CCCCCCCCCCCCCCCNc1nc(NCCCCCCCCCCCCCCC)nc(NCCN(CC)CC)n1	0.5

We now examine a further molecule.
Data request: Value wanted: Absolute DNA transfection efficiency in HEK293 cells (HEK293 cells) of entry `CCCCCCCCCCCCCCCCNc1nc(NCCCCCCC)nc(NCCCN2CCOCC2)n1`
Data returned: 0.1

====

- Test system: embryonic stem cells (hESC2)
- TEST_NAME: Screening as DNA vectors in embryonic stem cells, flow cytometry
- Type: cell-based
- MEASUREMENT_SETUP: 75 ng plasmid DNA, 48 hours after transfection, flow cytometer
So basically: Absolute DNA transfection efficiency in embryonic stem cells at 1% or higher? That is criterion met. Lower than 1%? That is criterion not met.

Use the examples below as a reference point.
CCCCCCCCCCCCNc1nc(NCCCN2CCOCC2)nc(SCCCCCCCCC)n1 [Compound S9N12D8]	criterion met
CCCCCCCCCCCCSc1nc(NCCN2CCCC2)nc(SCCCCCCCCC)n1 [Compound S9S12D3]	criterion met
CCCCCCCCCCCCSc1nc(NCCN2CCN(C)CC2)nc(SCCCCCCCCC)n1 [Compound S9S12D5]	criterion met
CCCCCCCCCCCNc1nc(NCCN2CCCC2)nc(SCCCCCCCC)n1 [Compound S8N11D3]	criterion not met
CCCCCCCCCCCCCCSc1nc(NCC2CCN(C)CC2)nc(SCCCCCCCCC)n1 [Compound S9S14D10]	criterion not met
CCCCCCCCCCCNc1nc(NCCCN(C)C)nc(SCCCCCCCC)n1 [Compound S8N11D6]	criterion not met

Next compound, please.
Data request: Does the compound CCCCCCCCCCCCSc1nc(NCCCN(C)C)nc(SCCCCCCCCC)n1 [Compound S9S12D6] have recorded Absolute DNA transfection efficiency in embryonic stem cells that is 1% or more?
Data returned: criterion met

====

Measured Absolute mRNA transfection efficiency in MCF7 cells, listed per entry.
- System: MCF7 cells
- TEST_NAME: Transfection of MCF7 cell line, mRNA vectors
- Format: cell-based
- MEASUREMENT_SETUP: 50 ng EGFP mRNA per well
Quick note: unit goes after the number.

CCCCCCCCCCCCCCCCSc1nc(NCCCN2CCOCC2)nc(SCCCCCCCCC)n1	7.7%
CCCCCCCCCCCCSc1nc(NCCN2CCCC2)nc(SCCCCCCC)n1	9.4%
CCCCCCCCCCCSc1nc(NCCCN2CCN(C)CC2)nc(SCCCCCCCC)n1	34.9%

Data request: Value wanted: Absolute mRNA transfection efficiency in MCF7 cells (MCF7 cells) of entry `CCCCCCCCCCCNc1nc(NCCN2CCN(C)CC2)nc(SCCCCCCCC)n1`
Data returned: 9.1%

Data request: Thanks! And `CCCCCCCCCCCSc1nc(NCCCCCCC)nc(NCCN2CCCC2)n1` ?
Data returned: 5.8%

====

- System: MCF7 cells
- TEST_NAME: Transfection of MCF7 cell line, mRNA vectors
- Format: cell-based
- MEASUREMENT_SETUP: 50 ng EGFP mRNA per well
Measured Absolute mRNA transfection efficiency in MCF7 cells, listed per entry.
Your answer should be a plain number; it is taken to be in %.

CCCCCCCCCCCCSc1nc(NCC2CCN(C)CC2)nc(SCCCCCCCCC)n1 [Compound S9S12D10]	40.9
CCCCCCCCCCCCNc1nc(NCCCN2CCOCC2)nc(SCCCCCCCC)n1 [Compound S8N12D8]	0.3
CCCCCCCCCCCCCCSc1nc(NCCCN2CCOCC2)nc(SCCCCCCCCC)n1 [Compound S9S14D8]	14.8
CCCCCCCCCCCCSc1nc(NCC2CCN(C)CC2)nc(SCCCCCCC)n1 [Compound S7S12D10]	47.5
CCCCCCCCCCCSc1nc(NCCCCCCCCC)nc(NCCCN2CCOCC2)n1 [Compound S11N9D8]	13.1
CCCCCCCCCCCCCNc1nc(NCCCN2CCN(C)CC2)nc(SCCCCCCCC)n1 [Compound S8N13D9]	13.3

Data request: Value wanted: Absolute mRNA transfection efficiency in MCF7 cells (MCF7 cells) of entry CCCCCCCCCCCSc1nc(NCCCN2CCOCC2)nc(SCCCCCCCC)n1 [Compound S8S11D8]
Data returned: 7.0

Data request: Thanks! And CCCCCCCCCCCCNc1nc(NCCCN(C)C)nc(SCCCCCCCCC)n1 [Compound S9N12D6] ?
Data returned: 22.4

====

- Tested on: HEK293 cells
- TEST_NAME: Preliminary screening as DNA vectors, GFP transfection of HEK293 cells
- Assay type: cell-based
- MEASUREMENT_SETUP: amino lipid/DOPE liposome with 75 ng plasmid DNA (psin-EGFP-IRES-Puro); number of GFP-expressing cells divided by total nuclei (Hoechst)
Classification by Absolute DNA transfection efficiency in HEK293 cells | ranges: lo (below 0.1%), med (0.1% to below 10%), hi (10% or more)

Use the examples below as a reference point.
CCCCCCCCCCCCCCCCNc1nc(NCCN(C)C)nc(SCCCCCCCC)n1 [S8N16 D1]	med
CCCCCCCCCCCCCCSc1nc(NCCN2CCCCC2)nc(N(CCCCCCCCCCCC)CCCCCCCCCCCC)n1	lo
CCCCCCCCCCCNc1nc(NCCCN(C)C)nc(SCCCCCCCC)n1	hi
CCCCCCCCCSc1nc(NCCN2CCCCC2)nc(SCCCCCCCC)n1	hi
CCCCCCCCCCCCCCCCNc1nc(NCCCN2CCN(C)CC2)nc(SCCCCCC)n1	hi
CCCCCCCCCCCCSc1nc(NCCN2CCCCC2)nc(N(CCCCCCCCCCCC)CCCCCCCCCCCC)n1	lo

Data request: Which category does the recorded Absolute DNA transfection efficiency in HEK293 cells put `CCCCCCCCCCCCSc1nc(NCCN2CCCC2)nc(SCCCCCC)n1` in?
Data returned: med

Data request: Thanks! And `CCCCCCCCCCCCN(CCCCCCCCCCCC)c1nc(NCCCN2CCOCC2)nc(SCCCCCCC)n1` ?
Data returned: lo

Data request: Thanks! And `CCCCCCCCCCCCCCCCNc1nc(NCCN(CC)CC)nc(SCCCCCCCCCCCCCC)n1` ?
Data returned: med

Data request: Thanks! And `CCCCCCCCCCCCCCCCCCNc1nc(NCCN2CCCCC2)nc(SCCCCCCCCCCCCCCC)n1` ?
Data returned: med

Data request: Thanks! And CCCCCCCCCCCCCCCCSc1nc(NCCCCCCCC)nc(NCCN2CCOCC2)n1 [S16N8 D2] ?
Data returned: hi

Data request: Thanks! And `CCCCCCCCCCCCCCCCCCNc1nc(NCCCN2CCN(C)CC2)nc(SCCCCCCCC)n1` ?
Data returned: med

====

Measured Absolute mRNA transfection efficiency in MCF7 cells, listed per entry.
- Test system: MCF7 cells
- TEST_NAME: Transfection of MCF7 cell line, mRNA vectors
- Assay type: cell-based
- MEASUREMENT_SETUP: 50 ng EGFP mRNA per well
Your answer should be a plain number; it is taken to be in %.

Some compounds with known Absolute mRNA transfection efficiency in MCF7 cells results, for comparison:
CCCCCCCCCCCCSc1nc(NCCCN2CCN(C)CC2)nc(SCCCCCCC)n1 [Compound S7S12D9]	21.2
CCCCCCCCCCCCSc1nc(NCCN2CCN(C)CC2)nc(SCCCCCCCC)n1 [Compound S8S12D5]	32.6
CCCCCCCCCCCNc1nc(NCCCN(C)C)nc(SCCCCCCCC)n1 [Compound S8N11D6]	6.7

Data request: // query Absolute mRNA transfection efficiency in MCF7 cells value for entry CCCCCCCCCCCCCCSc1nc(NCCN2CCN(C)CC2)nc(SCCCCCCCCC)n1 [Compound S9S14D5]
Data returned: 2.1

Data request: Thanks! And CCCCCCCCCCCSc1nc(NCCN2CCN(C)CC2)nc(SCCCCCCCC)n1 [Compound S8S11D5] ?
Data returned: 30.6

Data request: Thanks! And CCCCCCCCCCCSc1nc(NCCCCCCCCC)nc(NCCN2CCN(C)CC2)n1 [Compound S11N9D5] ?
Data returned: 17.8

Data request: Thanks! And CCCCCCCCCCCSc1nc(NCCCCCCC)nc(NCCCN2CCN(C)CC2)n1 [Compound S11N7D9] ?
Data returned: 5.1

Data request: Thanks! And CCCCCCCCCCCSc1nc(NCCCCCCCC)nc(NCCN2CCN(C)CC2)n1 [Compound S11N8D5] ?
Data returned: 21.2
